Below, each entry is listed alongside its reported cytotoxicity at 10 µM.
# protocol_details: Toxicity liver stage against HepG2, at 10uM
# Assay type: cell-based
# Parameters: test concentration 10 uM, cell line HepG2-A16-CD81EGFP
# test_conditions: human, HepG2-A16-CD81EGFP cells; read-out: INHIBITION

N#Cc1cccc(C(=O)N2C[C@H](CO)C[C@H](CN3CCCC3)C2)c1 ... -1.04%

Which cytotoxicity at 10 µM value belongs to Cn1nccc1C(=O)NC(C)(C)c1noc(C(C)(C)C)n1 ? 8.22%

Which cytotoxicity at 10 µM value belongs to CCCc1nnnn1CC(=O)NCc1cccc(C)c1 ? -3.94%

Which cytotoxicity at 10 µM value belongs to O=C(CCn1cc(Cl)cn1)Nc1nncs1 ? -9.61%

Which cytotoxicity at 10 µM value belongs to Cc1[nH]ncc1C(=O)N1CCCC1c1noc(C2CC2)n1 (stereo unspecified) ? -18.1%

Which cytotoxicity at 10 µM value belongs to c1cnc(-c2nc(CN3CCC(c4ccn[nH]4)CC3)cs2)nc1 ? -2.97%
